ASSAYED SYSTEM: ΔF508-CFTR (Homo sapiens, UniProt P13569, DEL508-508)
Construct: host or cells: CFBE41o-, doxycycline-inducible
Sequence (P13569 with tags, fused parts or gaps DEL508-508): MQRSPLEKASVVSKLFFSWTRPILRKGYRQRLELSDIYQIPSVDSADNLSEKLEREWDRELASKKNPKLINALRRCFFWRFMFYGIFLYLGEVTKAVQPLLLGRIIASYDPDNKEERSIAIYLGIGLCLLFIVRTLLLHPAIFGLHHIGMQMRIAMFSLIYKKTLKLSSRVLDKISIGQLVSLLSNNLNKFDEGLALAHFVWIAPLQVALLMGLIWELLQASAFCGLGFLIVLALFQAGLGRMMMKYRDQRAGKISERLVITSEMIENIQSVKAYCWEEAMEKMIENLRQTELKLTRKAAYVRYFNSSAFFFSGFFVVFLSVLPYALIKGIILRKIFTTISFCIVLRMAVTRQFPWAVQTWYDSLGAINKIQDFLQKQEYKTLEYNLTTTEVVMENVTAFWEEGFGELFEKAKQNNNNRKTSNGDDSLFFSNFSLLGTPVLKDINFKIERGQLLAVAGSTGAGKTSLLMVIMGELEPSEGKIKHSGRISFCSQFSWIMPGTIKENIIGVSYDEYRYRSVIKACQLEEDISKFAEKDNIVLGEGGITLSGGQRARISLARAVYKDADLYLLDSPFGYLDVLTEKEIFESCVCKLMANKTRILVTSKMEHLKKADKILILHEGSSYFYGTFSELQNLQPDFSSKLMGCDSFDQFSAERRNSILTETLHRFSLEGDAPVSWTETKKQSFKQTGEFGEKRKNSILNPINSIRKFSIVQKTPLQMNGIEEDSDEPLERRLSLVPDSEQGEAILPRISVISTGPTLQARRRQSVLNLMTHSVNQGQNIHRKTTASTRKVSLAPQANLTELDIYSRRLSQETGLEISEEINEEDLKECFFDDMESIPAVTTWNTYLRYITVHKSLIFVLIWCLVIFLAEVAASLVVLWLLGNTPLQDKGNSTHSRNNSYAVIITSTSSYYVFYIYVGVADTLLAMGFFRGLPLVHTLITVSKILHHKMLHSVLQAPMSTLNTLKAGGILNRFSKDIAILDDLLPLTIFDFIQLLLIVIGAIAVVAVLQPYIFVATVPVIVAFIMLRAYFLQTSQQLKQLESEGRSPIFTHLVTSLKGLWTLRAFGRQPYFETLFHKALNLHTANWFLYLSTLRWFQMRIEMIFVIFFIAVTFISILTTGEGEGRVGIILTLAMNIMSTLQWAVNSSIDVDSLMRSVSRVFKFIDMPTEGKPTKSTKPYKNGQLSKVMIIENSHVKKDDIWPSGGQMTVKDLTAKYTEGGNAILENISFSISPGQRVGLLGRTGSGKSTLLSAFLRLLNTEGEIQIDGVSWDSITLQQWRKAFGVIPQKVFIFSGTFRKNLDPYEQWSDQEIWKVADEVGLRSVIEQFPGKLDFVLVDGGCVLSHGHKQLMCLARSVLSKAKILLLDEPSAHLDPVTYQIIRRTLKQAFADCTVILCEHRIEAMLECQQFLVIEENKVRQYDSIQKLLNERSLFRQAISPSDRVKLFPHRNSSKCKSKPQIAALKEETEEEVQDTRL
PROTOCOL DETAILS: CFTR cell surface levels using HRP-tagged ΔF508-CFTR expressing CFBE cells, intrinsic corrector capacity
Format: cell-based
RECORDED CONDITIONS: HRP-tagged ΔF508-CFTR expressing CFBE41o- cells; compound alone (intrinsic corrector capacity); 20 hours at 33° C.; read-out: EC50
Kindly supply the reported pEC50 values for the records listed here.
pEC50 field: float, defined as -log10 of concentration (mol/L).

Ask: Tell me measured pEC50 for CC(=O)NCCS(=O)(=O)NC(=O)c1cc(N2CCC(N3CCOCC3)CC2)c2c(C3CCC3)nn(-c3ccc(F)cc3)c2n1 please.
Reply: 5.56

Ask: Tell me measured pEC50 for CC(C)COC1CCN(c2cc(C(=O)NS(C)(=O)=O)nc3c2c(C(C)C)nn3-c2ccc(F)cc2)CC1 please.
Reply: 6.47

Ask: Tell me measured pEC50 for CC(C)c1nn(-c2cccc(N(C)C)c2)c2nc(C(=O)NS(C)(=O)=O)cc(-c3cnc(N4CCC(C#N)CC4)nc3)c12 please.
Reply: 6.08

Ask: Tell me measured pEC50 for Cc1nn(C2CCCCC2)c2nc(C(=O)NS(=O)(=O)C3CC3)cc(-c3ccc(N4CCOCC4)cc3)c12 please.
Reply: 6.00

Ask: Tell me measured pEC50 for COC1(C)CCN(c2cc(C(=O)NS(C)(=O)=O)nc3c2c(C(C)C)nn3-c2ccc(F)cc2)CC1 please.
Reply: 6.38

Ask: Tell me measured pEC50 for COCCS(=O)(=O)NC(=O)c1cc(N2CCC(COC)CC2)c2c(C(C)C)nn(CC3CCC3)c2n1 please.
Reply: 6.35

Ask: Tell me measured pEC50 for CS(=O)(=O)NC(=O)c1cc(N2CCC(N3CCOCC3)CC2)c2c(C3CCC3)nn(-c3cccc(F)c3)c2n1 please.
Reply: 6.75

Ask: Tell me measured pEC50 for COCC1CCN(c2cc(C(=O)NS(=O)(=O)N3CCCN(C(C)=O)CC3)nc3c2c(C2CCC2)nn3-c2ccccc2)CC1 please.
Reply: 7.00

Ask: Tell me measured pEC50 for CC(c1ccc(-c2cc(C(=O)NS(=O)(=O)N(C)C)nc3c2c(C2CCC2)nn3C2CCCCC2)cc1)N1CCOCC1 (centres unmarked) please.
Reply: 6.62

Ask: Tell me measured pEC50 for COCCOCC1(F)CCCN(c2cc(C(=O)NS(C)(=O)=O)nc3c2c(C(C)C)nn3-c2ccc(F)cc2)C1 (centres unmarked) please.
Reply: 6.51

Ask: Tell me measured pEC50 for CC(C)c1nn(-c2ccc(F)cc2)c2nc(C(=O)NS(C)(=O)=O)cc(N3CCN(C4CCC4)CC3)c12 please.
Reply: 6.00

Ask: Tell me measured pEC50 for Cc1cccc(-n2nc(C(C)C)c3c(N4CCC5(C4)CC5(F)F)cc(C(=O)NS(C)(=O)=O)nc32)c1 (centres unmarked) please.
Reply: 6.41

Ask: Tell me measured pEC50 for CC(=O)N1CCC(F)(COc2cc(C(=O)NS(C)(=O)=O)nc3c2c(C2CCC2)nn3-c2ccccc2)CC1 please.
Reply: 6.07

Ask: Tell me measured pEC50 for COCC1CCN(c2cc(C(=O)NS(=O)(=O)C3(C)CC3)nc3c2c(C2CCC2)nn3-c2ccccc2)CC1 please.
Reply: 6.59

* * *

ASSAYED SYSTEM: ΔF508-CFTR (Homo sapiens, UniProt P13569, DEL508-508)
Construct: host or cells: CFBE41o-, doxycycline-inducible
PROTOCOL DETAILS: CFTR cell surface levels using HRP-tagged ΔF508-CFTR expressing CFBE cells, intrinsic corrector capacity
Assay type: cell-based
Parameters: concentration or dose not given beside the values
RECORDED CONDITIONS: HRP-tagged ΔF508-CFTR expressing CFBE41o- cells; compound alone (intrinsic corrector capacity); 20 hours at 33° C.
Parameter threshold = 200%. Response is Met when % Activation meets or exceeds it, else Not met.

Ask: Can CC(C)Oc1nn(C2CCCCC2)c2nc(C(=O)NS(C)(=O)=O)cc(-c3ccc(CN4CCC(N(C)C)CC4)cc3)c12 be said to have % Activation at or above 200%?
Reply: Not met

Ask: Can COC1CCN(S(=O)(=O)NC(=O)c2cc(N3CCC(N4CCOCC4)CC3)c3c(C4CCC4)nn(-c4ccc(F)cc4)c3n2)C1 (stereo not shown) be said to have % Activation at or above 200%?
Reply: Met

Ask: Can CS(=O)(=O)NC(=O)c1cc(OCC2CCOCC2)c2c(C3CCC3)nn(-c3ccccc3)c2n1 be said to have % Activation at or above 200%?
Reply: Not met

Ask: Can COCCS(=O)(=O)NC(=O)c1cc(-c2ccc(OC)cc2)c2c(C)nn(C(C)C)c2n1 be said to have % Activation at or above 200%?
Reply: Not met

Ask: Can CN(C)S(=O)(=O)NC(=O)c1cc(-c2ccc(CN3CCOCC3)cc2)c2c(C3CCC3)nn(C3CCCCC3)c2n1 be said to have % Activation at or above 200%?
Reply: Not met

Ask: Can CC(C)Oc1cc(-n2nc(C3CCC3)c3c(N4CCC(N5CCOCC5)CC4)cc(C(=O)NS(=O)(=O)N(C)C)nc32)ccn1 be said to have % Activation at or above 200%?
Reply: Met

Ask: Can CN(C)S(=O)(=O)NC(=O)c1cc(N2CCC(N3CCN(C4COC4)CC3)CC2)c2c(C3CCC3)nn(-c3ccc(F)cc3)c2n1 be said to have % Activation at or above 200%?
Reply: Met

* * *

ASSAYED SYSTEM: ΔF508-CFTR (Homo sapiens, UniProt P13569, DEL508-508)
Construct: host or cells: CFBE41o-, doxycycline-inducible
PROTOCOL DETAILS: CFTR cell surface levels using HRP-tagged ΔF508-CFTR expressing CFBE cells, intrinsic corrector capacity
Type: cell-based
RECORDED CONDITIONS: HRP-tagged ΔF508-CFTR expressing CFBE41o- cells; compound alone (intrinsic corrector capacity); 20 hours at 33° C.; read-out: EC50
From the text: Measuring CFTR Cell Surface Levels Using HRP-Tagged ΔF508-CFTR Expressing CFBE Cells The HRP-tagged ΔF508-CFTR cell assay measures the expression of CFTR-ΔF508 at the plasma membrane. […] When HRP-tagged ΔF508-CFTR is present at the plasma membrane, the HRP enzyme activity can be measured. The amount of CFTR-ΔF508 that can be rescued to the plasma membrane is correlated with the amount of functional enzyme that can be measured. […]
Kindly supply the reported EC50 values for the records listed here.
Give a bare numeral; the unit nM is implied.

Ask: Tell me measured EC50 for O=C(NS(=O)(=O)NC1CCOCC1)c1cc(N2CCC(N3CCOCC3)CC2)c2c(C3CCC3)nn(-c3ccc(F)cc3)c2n1 please.
Reply: 152

Ask: Tell me measured EC50 for COCCC1CCN(c2cc(C(=O)NS(C)(=O)=O)nc3c2c(C2CCC2)nn3-c2ccccc2)CC1 please.
Reply: 389

Ask: Tell me measured EC50 for COCCS(=O)(=O)NC(=O)c1cc(N2CCC(COC)CC2)c2c(C(C)C)nn(-c3ccnc(N4CCOCC4)c3)c2n1 please.
Reply: 371

Ask: Tell me measured EC50 for O=C(NS(=O)(=O)N1CCC(N2CCCCC2)CC1)c1cc(N2CCC(N3CCOCC3)CC2)c2c(C3CCC3)nn(-c3ccccc3)c2n1 please.
Reply: 403

Ask: Tell me measured EC50 for CC(C)Oc1nn(C2CCCCC2)c2nc(C(=O)NS(C)(=O)=O)cc(-c3ccc(CN4CCN(C)CC45COC5)cc3)c12 please.
Reply: 74.9

Ask: Tell me measured EC50 for CN(C)S(=O)(=O)NC(=O)c1cc(N2CCC(N3CC(C#N)C3)CC2)c2c(C3CCC3)nn(-c3ccc(F)cc3)c2n1 please.
Reply: 124

Ask: Tell me measured EC50 for COCC1CCN(c2cc(C(=O)NS(=O)(=O)C3CC3)nc3c2c(C2CCC2)nn3-c2ccccc2)CC1 please.
Reply: 104

* * *

ASSAYED SYSTEM: ΔF508-CFTR (Homo sapiens, UniProt P13569, DEL508-508)
Construct: host or cells: CFBE41o-, doxycycline-inducible
PROTOCOL DETAILS: CFTR cell surface levels using HRP-tagged ΔF508-CFTR expressing CFBE cells, in the presence of a co-corrector
Type: cell-based
RECORDED CONDITIONS: HRP-tagged ΔF508-CFTR CFBE cells, in the presence of 3 μM co-corrector
RESULT TYPE: % Activation
Form field: result (number plus unit)

Ask: Tell me measured % Activation for CN(C)S(=O)(=O)NC(=O)c1cc(N2CCC(N3CCN(C4CC4)CC3)CC2)c2c(C3CCC3)nn(-c3ccccc3)c2n1 [Compound 549] please.
Reply: 476.35%

Ask: Tell me measured % Activation for COCCS(=O)(=O)NC(=O)c1cc(N2CCC(N3CCOCC3)CC2)c2c(C3CCC3)nn(-c3ccc(F)cc3)c2n1 [Compound 407] please.
Reply: 494.15%

Ask: Tell me measured % Activation for CC(C)(O)C1CCN(c2cc(C(=O)NS(C)(=O)=O)nc3c2c(C2CCC2)nn3-c2ccccc2)CC1 [Compound 317] please.
Reply: 450.35%

Ask: Tell me measured % Activation for CS(=O)(=O)NC(=O)c1cc(-c2ccc(N3CCC(C#N)CC3)nc2)c2c(OC3CCNCC3)nn(-c3ccccc3)c2n1 [Compound 258] please.
Reply: 127.1%

Ask: Tell me measured % Activation for CN(C)S(=O)(=O)NC(=O)c1cc(OCC2CCN(C3CC3)CC2)c2c(C3CCC3)nn(-c3ccc(F)cc3)c2n1 [Compound 616] please.
Reply: 341.15%

Ask: Tell me measured % Activation for COCCS(=O)(=O)NC(=O)c1cc(N2CCC(OC)CC2)c2c(C3CCC3)nn(-c3ccccc3)c2n1 [Compound 146] please.
Reply: 357.55%

Ask: Tell me measured % Activation for O=C(NS(=O)(=O)N1CCC(F)C1)c1cc(N2CCC(N3CCOCC3)CC2)c2c(C3CCC3)nn(-c3ccc(F)cc3)c2n1 (stereo not shown) [Compound 537] please.
Reply: 417.1%
